The measured values listed here are drawn from patent US12577206B2.

Molecular target: human FPR2 (Homo sapiens, UniProt P25090)
Sequence (P25090 whole entry): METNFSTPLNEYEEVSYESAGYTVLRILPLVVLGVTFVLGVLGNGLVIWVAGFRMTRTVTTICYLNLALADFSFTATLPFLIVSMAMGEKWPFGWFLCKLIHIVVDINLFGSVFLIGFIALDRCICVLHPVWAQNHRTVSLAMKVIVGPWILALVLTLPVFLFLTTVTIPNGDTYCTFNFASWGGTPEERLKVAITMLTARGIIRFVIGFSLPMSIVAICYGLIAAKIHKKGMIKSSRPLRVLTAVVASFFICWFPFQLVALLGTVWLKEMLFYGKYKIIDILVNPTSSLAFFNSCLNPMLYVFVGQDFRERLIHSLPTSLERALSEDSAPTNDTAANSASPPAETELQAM
Test: FPR2 cyclic adenosine monophosphate (cAMP) assay
Details: CHO cells overexpressing human FPR2; forskolin 5 μM; inhibition of cAMP production; HTRF; read-out: hFPR2 cAMP2 EC50
Entries and their EC50
endpoint: EC50 (nM)

>>> numeric_readout("COc1cc(F)c(-c2c(NC(=O)c3ccc(OC(F)F)cc3)c(=O)n(-c3cc(OC)ccc3C#N)n2C)c(F)c1")
11
>>> numeric_readout("COc1cc(OCC(C)(F)F)nc(-n2c(=O)c(NC(=O)c3ccc(OC(F)F)cc3)c(-c3c(F)cc(OC)cc3F)n2C)c1")
8
>>> numeric_readout("COc1cc(F)c(-c2c(NC(=O)c3ccc(OC(F)F)cc3)c(=O)n(-c3ccc(C4CC4)cn3)n2C)c(F)c1")
6
>>> numeric_readout("COc1cc(F)c(-c2c(NC(=O)c3ccc(OC(F)F)cc3)c(=O)n(-c3ccc(F)cc3)n2C)c(F)c1")
17

---

Molecular target: human FPR1 (Homo sapiens, UniProt P21462)
Sequence (P21462 1-350): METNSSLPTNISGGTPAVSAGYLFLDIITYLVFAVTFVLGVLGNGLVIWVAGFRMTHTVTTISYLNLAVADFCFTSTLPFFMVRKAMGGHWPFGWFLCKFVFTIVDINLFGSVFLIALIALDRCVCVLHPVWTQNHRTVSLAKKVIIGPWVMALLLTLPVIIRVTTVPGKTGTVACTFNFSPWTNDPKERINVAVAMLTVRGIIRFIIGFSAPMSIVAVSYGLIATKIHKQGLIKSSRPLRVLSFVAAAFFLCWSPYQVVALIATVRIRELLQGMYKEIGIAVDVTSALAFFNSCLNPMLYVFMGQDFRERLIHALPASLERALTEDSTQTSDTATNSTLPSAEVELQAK
Assay: FPR1 cyclic adenosine monophosphate (cAMP) assay
Details: CHO cells overexpressing human FPR1; forskolin 10 μM; inhibition of cAMP production; HTRF; read-out: hFPR1 cAMP2 EC50
Entries and their EC50
endpoint: EC50

>>> result("CCOc1ccc(C(F)(F)F)c(-n2c(=O)c(NC(=O)c3ccc(OC(F)F)cc3)c(-c3c(F)cc(OC)cc3F)n2C)n1 [Example 286]")
"> 5 µM"
>>> result("COc1cc(F)c(-c2c(NC(=O)c3ccc(OC(F)F)cc3)c(=O)n(-c3c(F)cccc3F)n2C)c(F)c1 [Example 27]")
"> 10 µM"
>>> result("COc1ccc(-c2c(NC(=O)c3ccc(OC(F)F)cc3)c(=O)n(-c3ncccc3C(F)(F)F)n2C)cc1C [Example 246]")
"> 10 µM"
>>> result("COc1cc(F)c(-c2c(NC(=O)c3ccc(OC(F)F)cc3)c(=O)n(-c3cc(C)cc(C#N)n3)n2C)c(F)c1 [Example 362]")
"> 10 µM"
>>> result("COc1cc(F)c(-c2c(NC(=O)c3ccc(OC(F)F)cc3)c(=O)n(-c3nccc(C)c3Cl)n2C)c(F)c1 [Example 180]")
"> 10 µM"
>>> result("COc1cc(F)c(-c2c(NC(=O)c3ccc(OC(F)F)cc3)c(=O)n(-c3nc(Cl)ccc3N(C)C)n2C)c(F)c1 [Example 209]")
"> 10 µM"

---

Entries and their pEC50
Target: human FPR2 (Homo sapiens, UniProt P25090)
Test: FPR2 cyclic adenosine monophosphate (cAMP) assay
Details: CHO cells overexpressing human FPR2; forskolin 5 μM; inhibition of cAMP production; HTRF; read-out: hFPR2 cAMP2 EC50
pEC50: −log10 of the molar value.
endpoint: pEC50

>>> numeric_readout("COc1cc(F)c(-c2c(NC(=O)c3ccc(OC(F)F)cc3)c(=O)n(-c3cc(F)cc(OC(C)C)c3)n2C)c(F)c1 [Example 125]")
8.40
>>> numeric_readout("COc1cc(F)c(-c2c(NC(=O)c3ccc(OC(F)F)cc3)c(=O)n(-c3nc(Cl)ccc3N3CC4(COC4)C3)n2C)c(F)c1 [Example 144]")
7.66
>>> numeric_readout("COc1cc(F)c(-c2c(NC(=O)c3ccc(OC(F)F)cc3)c(=O)n(-c3cc(OC4CCOC4)cc(C)n3)n2C)c(F)c1 (centres unmarked) [Example 320]")
8.70
>>> numeric_readout("COc1cc(F)c(-c2c(NC(=O)c3ccc(OC(F)F)cc3)c(=O)n(-c3cccc(OC(F)F)c3)n2C)c(F)c1 [Example 177]")
8.52
>>> numeric_readout("COc1cc(F)c(-c2c(NC(=O)c3ccc(OC(F)F)cc3)c(=O)n(-c3nc(N[C@H](C)CO)ccc3C(F)(F)F)n2C)c(F)c1 [Example 236]")
8.05
>>> numeric_readout("COc1cc(F)c(-c2c(NC(=O)c3ccc(OC(F)F)cc3)c(=O)n(-c3nc(N4CC5(CC(O)C5)C4)ccc3C(F)(F)F)n2C)c(F)c1 [Example 308]")
8.52
>>> numeric_readout("COc1cc(F)c(-c2c(NC(=O)c3ccc(Cl)cc3)c(=O)n(-c3ccc(Cl)cn3)n2C)c(F)c1 [Example 43]")
7.39
>>> numeric_readout("COc1cc(F)c(-c2c(NC(=O)c3ccc(OC(F)F)cc3)c(=O)n(-c3cccc(C)n3)n2C)c(F)c1 [Example 46]")
7.66
